system: IFNα-stimulated STAT-dependent luciferase reporter in Kit225 T cells; experiment: Kit225 T cell assay, IFNα stimulated STAT-dependent luciferase reporter; type: cell-based, human; details: Kit225 T cells, 200 U/mL human recombinant IFNα, 5-6 hours, luciferase; read-out: IFNα (Kit225 T Cell Inhibition Data)
pIC50: −log10 of the molar value.
measureName: pIC50

>>> experimentalresult("CNC(=O)c1cnc(Nc2cc(C#N)ccn2)cc1Nc1cc(F)cc(F)c1OC")
6.89
>>> experimentalresult("CNC(=O)c1cnc(Nc2ccc(F)cn2)cc1Nc1ccc(C(=O)N2CC(F)(F)C2)cc1S(C)(=O)=O")
5.94
>>> experimentalresult("CNC(=O)c1cnc(Nc2ccc(N3CCOCC3)cn2)cc1Nc1cccc2c1OCCO2")
7.05
>>> experimentalresult("CNC(=O)c1cnc(Nc2ccc(F)cn2)cc1Nc1ccccc1N")
5.51

a = CNC(=O)c1cnc(Nc2ccc(F)cn2)cc1Nc1cc(F)ccc1S(C)(=O)=O
b = CNC(=O)c1cnc(Nc2ccc(Cl)cn2)cc1Nc1ccccc1C(N)=O
When the recorded pIC50 values are compared, which is smaller: that of a or that of b ? Lab log: write the label of the selected item as the result.
b
(b: 6.34, a: 6.77)

Data credit: patent US9315494B2
